- ASSAYED_TARGET: Serine protease 1 (Bos taurus)
- Sequence (P00760 whole entry): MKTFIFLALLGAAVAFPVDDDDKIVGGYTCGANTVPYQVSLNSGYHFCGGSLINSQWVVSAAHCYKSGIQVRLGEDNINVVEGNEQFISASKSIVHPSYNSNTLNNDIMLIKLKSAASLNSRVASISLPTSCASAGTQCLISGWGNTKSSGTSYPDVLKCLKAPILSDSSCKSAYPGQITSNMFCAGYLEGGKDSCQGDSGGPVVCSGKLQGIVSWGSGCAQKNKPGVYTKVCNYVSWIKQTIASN
- ASSAY_PROCEDURE: Inhibitory activity against trypsin
MEASURE_NAME: pIC50
The quantity pIC50 is defined as the negative base-10 logarithm of the molar concentration.

(Q) I'm curious: which pIC50 was measured for H-YYGAKIYRPDKM-OH tested on Serine protease 1 (Bos taurus)?
(A) 5.00
